Measured protein stability index, listed per entry.
B1: RHOBTB2 (parent)
chain: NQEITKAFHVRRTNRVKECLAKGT

variants of: B1; test: protein stability index of a GFP-peptide fusion (GPS, HEK-293T) (PSI 1-6); higher = more stable; conditions: c terminus: a fixed tail appended;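 further: lentivirally expressed fusions sorted by FACS into six bins by GFP to DsRed ratio, PSI derived from sequencing read proportions per bin multiplied by bin number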
Keep the answer to the number alone.

For orientation, consider the following solved cases.
> print(dat)
   mutation.name         measurement.type  data.value
1            N1K  protein stability index        3.49
2           T13Y  protein stability index        1.78
3            N1L  protein stability index        2.31
4           R12Q  protein stability index        3.93
5            Q2N  protein stability index        3.42

For the variant "L20I" , what protein stability index is on record?
4.41

For the variant "G23I" , what protein stability index is on record?
2.61

For the variant "E18T" , what protein stability index is on record?
3.93

For the variant "A7R" , what protein stability index is on record?
3.76

For the variant "A21L" , what protein stability index is on record?
2.61

For the variant "N14E" , what protein stability index is on record?
4.4

For the variant "E18A" , what protein stability index is on record?
3.08

For the variant "N14W" , what protein stability index is on record?
2.15
